Experiment: in vivo
Conditions: cynomolgus monkey, po, 5 mg/kg
value kind: Cmax (ng/mL)
Only the number, expressed in ng/mL, is required.

Request: Record request: Cmax value, item O=c1ccn([C@@H]2O[C@](F)(CO)[C@@H](O)[C@H]2O)c(=O)[nH]1
Result: 1500

###

Assay: in vivo
Conditions: Sprague-Dawley, rat, po, 10 mg/kg
value kind: half-life
Enter the number, and then the unit.

Request: Record request: half-life value, item O=c1ccn([C@@H]2O[C@](F)(CO)[C@@H](O)[C@H]2O)c(=O)[nH]1
Result: 3.39 h

###

Experiment: in vivo
Conditions: cynomolgus monkey, po, 5 mg/kg
value kind: AUC0-t (ng·h/mL)
Only the number, expressed in ng·h/mL, is required.

Request: Record request: AUC0-t value, item O=c1ccn([C@@H]2O[C@](F)(CO)[C@@H](O)[C@H]2O)c(=O)[nH]1
Result: 10700

###

Experiment: in vivo
Details: cynomolgus monkey, po, 5 mg/kg
value kind: half-life (h)
Only the number, expressed in h, is required.

Request: Record request: half-life value, item O=c1ccn([C@@H]2O[C@](F)(CO)[C@@H](O)[C@H]2O)c(=O)[nH]1
Result: 6.82
